- Test system: HEK-293T
- assay details: Multiplex assay against HEK293T
- Type: toxicity, cell-based
- assay context: human, 12 h, 10 µM, compound concentration 10 uM, replicate 2
result type: Population Fragmented Nuclei (%)

[[record]]
compound = "COCC(=O)NC/C=C/c1ccc2ncnc(Nc3ccc(Oc4ccc(C)nc4)c(C)c3)c2c1"
uom = "%"
reported = 12

[[record]]
compound = "O=C1NC(=O)C(c2cnc3ccccn23)=C1c1cn2c3c(cc(F)cc13)CN(C(=O)N1CCCCC1)CC2"
uom = "%"
reported = 6

[[record]]
compound = "COC(=N)c1nc2ccc3ncnc(Nc4ccc(OC)cc4F)c3c2s1"
uom = "%"
reported = 6

[[record]]
compound = "Cl.O=c1c2cccn2c2ccccc2n1CCCN1CCC(c2ccc(Cl)cc2)CC1"
uom = "%"
reported = 7

[[record]]
compound = "CCn1cc(-c2ccnc3[nH]c(-c4cccc(CN(C)C)c4)cc23)c(-c2ccc(NC(=O)N(C)C)cc2)n1"
uom = "%"
reported = 1

[[record]]
compound = "COc1ccc(S(=O)(=O)N(CCO)c2ccccc2CN(C)C/C=C/c2ccc(Cl)cc2)cc1.O=P(O)(O)O"
uom = "%"
reported = 6

[[record]]
compound = "CCCn1c(=O)c2[nH]c(-c3cnn(Cc4cccc(C(F)(F)F)c4)c3)nc2n(CC)c1=O"
uom = "%"
reported = 4

[[record]]
compound = "O=C(Cc1ccc(-c2ccc(OCCN3CCOCC3)cc2)cn1)NCc1ccccc1"
uom = "%"
reported = 5

[[record]]
compound = "Cn1nc(C(F)(F)F)cc1-c1cnc(N2CCc3cc(S(=O)(=O)Nc4c(F)cc(Cl)cc4F)cc(N4CCCC4=O)c32)nc1"
uom = "%"
reported = 9

[[record]]
compound = "CCOc1cc2ncc(C#N)c(Nc3ccc(OCc4ccccn4)c(Cl)c3)c2cc1NC(=O)/C=C/CN(C)C"
uom = "%"
reported = 30

[[record]]
compound = "O=C(Nc1ccc(-c2ccnc(Nc3ccc(N4CCOCC4)cc3)n2)cc1)[C@@H]1CCCN1"
uom = "%"
reported = 12

[[record]]
compound = "O=C(Nc1ccc(-n2nc(-c3cccnc3)cc2C(F)(F)F)cn1)c1ccc(-c2ccccc2)c(F)c1"
uom = "%"
reported = 5

[[record]]
compound = "CCOc1cc(C(=O)N2CCC(N3CCN(C)CC3)CC2)ccc1Nc1ncc2c(n1)N(C1CCCC1)c1ccccc1C(=O)N2C"
uom = "%"
reported = 5

[[record]]
compound = "C=CCn1c(=O)c2cnc(Nc3ccc(N4CCN(C)CC4)cc3)nc2n1-c1cccc(C(C)(C)O)n1"
uom = "%"
reported = 15

[[record]]
compound = "NC(=O)c1cccc(-c2cc(Nc3ccc(OC(F)(F)F)cc3)ncn2)c1"
uom = "%"
reported = 4

[[record]]
compound = "CCCS(=O)(=O)Nc1ccc(F)c(C(=O)c2c[nH]c3ncc(Cl)cc23)c1F"
uom = "%"
reported = 9

[[record]]
compound = "CCN1CCN(c2ccc(Nc3cc(N(C)C(=O)Nc4c(Cl)c(OC)cc(OC)c4Cl)ncn3)cc2)CC1"
uom = "%"
reported = 7

[[record]]
compound = "CCc1cccc(CC)c1NC(=O)c1nn(C)c2c1CCc1cnc(Nc3ccc(N4CCN(C)CC4)cc3OC)nc1-2"
uom = "%"
reported = 3

[[record]]
compound = "O=C(Nc1ccc(Cl)cc1)Nc1cccc(-c2cccc(N3CCCC3)n2)c1"
uom = "%"
reported = 7

[[record]]
compound = "S=C(NCCCc1c[nH]cn1)NCCCN(Cc1ccc(Cl)c(Cl)c1)c1ccc(Br)cn1"
uom = "%"
reported = 5

[[record]]
compound = "CCOC(=O)c1c(C)[nH]c2ccc3c(c12)CN1CCc2cc(OC)ccc2C1O3 (configuration not stated)"
uom = "%"
reported = 5

[[record]]
compound = "CCN1CCN(Cc2ccc(Nc3ncc(F)c(-c4cc(F)c5nc(C)n(C(C)C)c5c4)n3)nc2)CC1.CS(=O)(=O)O"
uom = "%"
reported = 12

[[record]]
compound = "CN(C)C(=O)C(CCN1CCC(O)(c2ccc(Cl)cc2)CC1)(c1ccccc1)c1ccccc1.Cl [LOPERAMIDE HYDROCHLORIDE]"
uom = "%"
reported = 6

[[record]]
compound = "COc1cc2ncnc(Nc3ccc(F)c(Cl)c3)c2cc1NC(=O)/C=C/CN1CCCCC1 [DACOMITINIB ANHYDROUS]"
uom = "%"
reported = 5

[[record]]
compound = "Cc1ccc(C(=O)Nc2cccc(C(F)(F)F)c2)cc1Nc1nc(-c2cccnc2)nc2c1cnn2C"
uom = "%"
reported = 5

[[record]]
compound = "C=C1/C(=C\\C=C2/CCC[C@]3(C)[C@@H]([C@H](C)/C=C/[C@H](C)C(C)C)CC[C@@H]23)C[C@@H](O)C[C@@H]1O"
uom = "%"
reported = 7

[[record]]
compound = "Cc1ccc2nc(NCCN)c3ncc(C)n3c2c1.O=C(O)C(F)(F)F.O=C(O)C(F)(F)F"
uom = "%"
reported = 5

